Molecular target: D(4) dopamine receptor (Homo sapiens)
Sequence (P21917 whole entry): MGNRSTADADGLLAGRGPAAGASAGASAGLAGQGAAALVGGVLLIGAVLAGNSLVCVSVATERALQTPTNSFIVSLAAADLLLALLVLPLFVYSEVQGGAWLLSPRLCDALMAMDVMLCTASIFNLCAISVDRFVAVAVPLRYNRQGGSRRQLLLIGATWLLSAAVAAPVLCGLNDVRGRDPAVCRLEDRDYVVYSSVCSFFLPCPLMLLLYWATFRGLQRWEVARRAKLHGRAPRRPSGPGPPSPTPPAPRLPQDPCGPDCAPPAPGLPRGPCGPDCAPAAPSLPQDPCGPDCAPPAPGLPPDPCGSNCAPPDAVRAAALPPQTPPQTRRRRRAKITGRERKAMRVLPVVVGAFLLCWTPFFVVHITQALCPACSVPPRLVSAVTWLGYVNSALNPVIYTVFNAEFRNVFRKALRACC
Measured Metric: Ki (µM)
Please state the figure in µM; there is no need to write the unit.

Recorded Ki for `CN1CCN(C2=Nc3ccccc3Oc3ccc(Cl)cc32)CC1` , please?
0.029

Do the same for `CCCN[C@@H]1CCc2c(OC)cccc2[C@@H]1C` please
0.132

Do the same for CCCN(CCC)C1C=Cc2c(OC)cccc2C1C (stereo not drawn) please
0.0665

Do the same for `CCN(CC)C(=O)N[C@H]1C[C@@H]2c3cccc4[nH]cc(c34)C[C@H]2N(C)C1` please
0.0052

Do the same for CCCN1CCCC(c2cccc(O)c2)C1 (stereo not drawn) please
0.546

Do the same for CN1C[C@@H](NC(=O)C(C)(C)C)CC2c3cccc4[nH]c(Cl)c(c34)C[C@H]21 (stereo partly drawn) please
0.0035

Do the same for O=C(O)c1ccccc1C(=O)Nc1cccc2ccccc12 [NPA,(+)] please
0.12

Do the same for `CCCOc1ccc2nc(NC(=O)OC)[nH]c2c1` please
0.152
